Reference source: the supplement of paper PMC9170038

System: MS2 coat protein
Assay: apparent KD of MS2 coat protein; designed switch direction (-1 OFF switch, 1 ON switch): 1; higher = weaker reporter binding
Conditions: input ligand: none
Label rule, in plain words: apparent KD of MS2 coat protein of 40 nM and up is true, under 40 nM is false.

Query: // inclusive: apparent KD of MS2 coat protein at least 40 nM? input: GUGGUCAGACAUGAGGAUCACCCAUGUGGAAUAAAUAAGGUCAAGGAUAUUGAAUAUAGGAUAUACAAGAAGGUGAGGUUGGUG (Eterna round: R96, puzzle: Same State NG 3)
Response: true

Query: Could you please find out whether ACAGAGUGAAGACAGGAUAUUCGCGAUGGCACAUGAGGAUCACCCAUGUUUUGAGCACAUAAACAGAAGAAGGGUUAAAACUCAG [Zadier] (Eterna round: R96, puzzle: Same State 2) has apparent KD of MS2 coat protein that meets 40 nM or exceeds it?
Response: true

Query: Tell me whether apparent KD of MS2 coat protein is at least 40 nM here: UGCCUGAGUCGAGGAUAUUAUGGAUCCUCUAAUACAUGAGGAUCACCCAUGUAAUUAAUUAUACAUGAGAAGGCGACUCAGGCA [SSNG2/12-A2] (Eterna round: R96, puzzle: Same State NG 2)
Response: true

Query: Please check the record GUUACAUGAGGAUCACCCAUGUAUGUGUGGGAGUAAGUGUCUUAGGAUAUCUAUCAUUUAAGUUAAGAGAAGGAAGAUUGUUGU [JMF's solution 95] (Eterna round: R96, puzzle: Same State NG 3) and state if its apparent KD of MS2 coat protein is at or above 40 nM.
Response: true

Query: Reported apparent KD of MS2 coat protein reaches at least 40 nM for GCUCGACGUGUUGUCUACAUGAGGAUCACCCAUGUAGGUGCGGAGGAUAUCUACGUGCUUUAUGUAGAGAAGGUCGUGUCGAGC [SameState NG3 #87] (Eterna round: R96, puzzle: Same State NG 3) ?
Response: true

Query: Threshold query (apparent KD of MS2 coat protein >= 40 nM) on CCGUAGAUGGUAGGAUAUGGAGCCUUAUUGGCUCCAGAAGGAUCGAAAACAUGAGGAUCACCCAUGUCGGCGGUCAAUAGACCG [Eli NG1ss - 84] (Eterna round: R96, puzzle: Same State NG 1)
Response: false

----------
System: MS2 coat protein
Assay: apparent KD of MS2 coat protein, switch OFF state (with FMN for OFF switches, without FMN for ON switches); designed switch direction (-1 OFF switch, 1 ON switch): 1; higher = weaker reporter binding
Conditions: FMN input: 0 or 200 uM; Eterna round: R93 (includes R88 designs)
measure name: apparent KD of MS2 coat protein (nM)
Numbers only, in nM.

For each entry beneath this line, provide reported apparent KD of MS2 coat protein.
1. AAAUAAAUGACUAAGGAUAUAUCAGAAAAAACAUGAGGAUCACCCAUGUAAUAAUAAAAAGGGUGAUAGAAGGUAGUCAACAAAC [74%, More Paria 4]
2. AAAAAACAUGAGGAUCACCCAUGUCAAAAGACAUGAGGAUAUGUGUGGAAACCAUACUAUACAGAAGGCAUAAAAA [SS1 - 1008]
3. GCGGUGCAGGUACAGGAUAUGUUGCUCGUAACAUGAGGAUCACCCAUGUACCUAUGAGAUUAAAUGCAGAAGGGUGCACACCACG [Oneratle]

Response:
[118, 159, 574]
